Consider the following compounds; for each one, report its growth inhibition.
- TEST_SUMMARY: NCI Yeast Anticancer Drug Screen. Data for the bub3 strain (AID 167)
- ASSAY_CONTEXT: S. cerevisiae bub3 mutant strain, at 5.0 µM (retest, dose inferred, filed as 0.5), stronger effect = higher value
Compounds without any hit were thinned out: in the full panel of roughly 79,000, 15% have a hit.
Answers are plain numbers, in %.

{"columns": ["COMPOUND", "ENDPOINT_UNIT", "growth inhibition"],
 "data": [
  ["O=C(O)C1CC(c2ccccc2)=NN1c1ccccc1 (configuration not stated)", "%", -7],
  ["O=C(CSC(=S)N1CCCCC1)Nc1nc2c(s1)CCCC2", "%", 45],
  ["CCOC(=O)C1=C(C)NC(C)=C(C(=O)OCCNC(=O)c2ccc(N=[N+]=[N-])cc2)C1c1ccccc1C(F)(F)F (configuration not stated)", "%", -42],
  ["CCCCc1nnc(NS(=O)(=O)c2ccc(C)cc2)s1", "%", 27],
  ["CCCOC(=O)C(F)C(Br)C(=O)OCCC (configuration not stated)", "%", 30],
  ["O=C(NCCCl)Sc1ccc(Cl)cc1", "%", -71],
  ["COc1cc(/C=C2\\NC(=O)N(/C=C3\\C(=O)Oc4ccccc4C3=O)C2=O)ccc1O", "%", -16],
  ["COc1ccc(NC(=O)CC2SC(=Nc3ccccc3C)NC2=O)c([N+](=O)[O-])c1 (configuration not stated)", "%", -8]
]}

Quick one: give me growth inhibition for each item below, same order please.
1. CCCCOC(=O)Nc1ccc(C)c(NC(=O)OCCCC)c1
2. COc1cc(/C=N/Nc2nnc3c4ccccc4c4ncccc4c3n2)cc(OC)c1OC
3. CC1=C(SCc2ccccc2)C(=O)c2ccccc2C1=O
4. Clc1ccc(NCNC2Nc3ccccc3N2)cc1Cl

1: -2; 2: 1; 3: 20; 4: 26

====

- TEST_SUMMARY: NCI Yeast Anticancer Drug Screen. Data for the wt1 strain (AID 149);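 further: 0% = growth of vehicle-treated wt1 cultures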
- ASSAY_CONTEXT: S. cerevisiae wt1 strain (SPY 50644) growth inhibition; at 11.0 µM; stronger effect = higher value
Compounds without any hit were thinned out: in the full panel of roughly 79,000, 15% have a hit.
QUANTITY_NAME: growth inhibition (%)
Numbers only, in %.

{"columns": ["COMPOUND", "growth inhibition (%)"],
 "data": [
  ["CCOC(=O)C(C(=O)OCC)=P(c1ccccc1)(c1ccccc1)c1ccccc1", 1]
]}

# batch size: 7; output growth inhibition per entry
1. CC(=O)Nc1ccc(/C=C/[N+](=O)[O-])cc1
2. O=C(C[n+]1ccc2ccccc2c1)c1ccc2ccccc2c1
3. CCc1nc2ccc(NCCN(C)C)c3c(=O)c4ccccc4n1c23
4. OCc1ccccc1Cc1ccccc1
5. O=C1OC(C2=CC(=O)c3ccccc3C2=O)C(Cl)=C1Cl (stereo unspecified)
6. O=P(NC1CCCCC1)(OCc1ccccc1)OCc1ccccc1
7. CCn1c(O)c(C=Nc2ccccc2)s/c1=N/Nc1nc(-c2ccccc2)cs1

1: -4; 2: -24; 3: 31; 4: 0; 5: 9; 6: 0; 7: 0

# per-item lookup of growth inhibition; items listed below
1. C/C=C/SC(=Nc1ccccc1)Nc1ccccc1
2. COC(=O)/C=C(/CC(=O)OC)C(=O)OC
3. O=[N+]([O-])c1cccc2nc3ccccc3c(NCCC[N+]3([O-])CCCCC3)c12
4. COC(=O)/C=C(/C(=O)OC)C(Cl)(Cl)Cl
5. O=C1N=C2SC=C(NC(=S)Nc3ccccc3)N2NC12c1ccccc1-c1ccccc12
6. COc1ccc(N=CN(C)C)c(C)c1
7. O=C(O)CNC(=S)Nc1ccccc1
8. O=C(NCCCNCCN1C(=O)c2cccc3cc([N+](=O)[O-])cc(c23)C1=O)c1cc(-c2ccccc2)nc2ccccc12

[-7, -1, 4, 34, 7, -32, -47, -2]

Give growth inhibition for all compounds that follow.
1. O=C1CC(=O)c2ccccc21
2. Cc1cc(C)c(NC(=S)NC(=O)c2ccccc2)cc1C
3. CC(C)(C)c1ccc(NS(=O)(=O)c2ccc(N)cc2)cc1
4. O=C(c1ccc([N+](=O)[O-])cc1)C1N=NCC1c1ccccc1 (stereo unspecified)
5. CC(O)=NC(Cc1ccc2ccccc2c1)C(O)=NC(Cc1ccc(Cl)cc1)C(O)=NC(Cc1c[nH]c2ccccc12)C(O)=NC(CO)C(O)=NC(Cc1ccc(O)cc1)C(O)=NC(CCCN=C(N)N)C(O)=NC(CC(C)C)C(O)=NC(CCCN=C(N)N)C(=O)N1CCCC1C(O)=NC(C)C(=N)O (stereo unspecified)
6. C[C](C)(C)[Ge]([O][Ge]([c]1ccccc1)[c]1ccccc1)([O][Ge]([c]1ccccc1)[c]1ccccc1)[C](C)(C)C
7. C(=Nc1ccc(-c2cc(-c3ccccc3)nc3ccc4ccccc4c23)cc1)c1ccccc1
8. O=C(CSC(=S)N1CCCCC1)Nc1nc2c(s1)CCCC2

[0, -39, 3, 4, -5, 42, 9, -13]

Could you tell me growth inhibition for each of these compounds? They are listed below.
1. COc1ccc(C(=O)c2ccccc2C(=O)c2ccccc2OC)cc1
2. O=C(CC(C(=O)O)N1CCOCC1)c1ccccc1 (stereo unspecified)

-6
0

Cited source: PubChem BioAssay (NCI)
